- Tested on: brain levels of L-5-hydroxytryptophan (L-5-HTP), serotonin (5-HT) and 5-hydroxyindoleacetic acid (5-HIAA)
- ASSAY_REMARKS: Biochemical analysis of brain levels of L-5-HTP, 5-HT and 5-HIAA one hour after a single dose (technique of CURZON and GREEN)
- Assay type: in vivo, rats
- CONDITION_SET: brain level, adult rats, single dose 50 mg/kg, one hour after administration, percentage increase relative to control animals
Square brackets hold non-standard residues; d marks the D form. Peptide text beside a SMILES is read from it. * marks the point of attachment. Trp(5-OH) = N[C@@H](Cc1c[nH]c2ccc(O)cc12)C(=O)O; OtBu = CC(C)(C)O*; tBu = CC(C)(C)*
PARAMETER_MEASURED: %, relative to the controls, of 5-HIAA at dose of 50 mg/kg (%)

>>> assay_result("COC(=O)[C@H](Cc1ccc(O)cc1)NC(=O)[C@@H](N)Cc1c[nH]c2ccc(O)cc12.Cl [Example 5] (H-[Trp(5-OH)]-Tyr-OMe)")
170
>>> assay_result("COC(=O)[C@H](Cc1c[nH]cn1)NC(=O)[C@@H](N)Cc1c[nH]c2ccc(O)cc12 [Example 22] (H-[Trp(5-OH)]-His-OMe)")
300
>>> assay_result("CC(C)(C)OC[C@H](NC(=O)[C@@H](N)Cc1c[nH]c2ccc(O)cc12)C(=O)OC(C)(C)C [Example 15] (H-[Trp(5-OH)]-Ser(tBu)-OtBu)")
150
>>> assay_result("COC(=O)[C@H](Cc1c[nH]c2ccc(O)cc12)NC(=O)[C@H](Cc1c[nH]c2ccc(O)cc12)NC(C)=O [Example 7] (Ac-[Trp(5-OH)]-[Trp(5-OH)]-OMe)")
20

----------
- Test system: brain levels of L-5-hydroxytryptophan (L-5-HTP), serotonin (5-HT) and 5-hydroxyindoleacetic acid (5-HIAA)
- ASSAY_REMARKS: Biochemical analysis of brain levels of L-5-HTP, 5-HT and 5-HIAA one hour after a single dose (technique of CURZON and GREEN)
- Type: in vivo, rats
- CONDITION_SET: Rattus norvegicus, 1 h; brain level, adult rats, single dose 50 mg/kg, one hour after administration, percentage increase relative to control animals; read-out: %, relative to the controls, of 5-HT at dose of 50 mg/kg
Square brackets hold non-standard residues; d marks the D form. Peptide text beside a SMILES is read from it. Trp(5-OH) = N[C@@H](Cc1c[nH]c2ccc(O)cc12)C(=O)O
# maps each entry to its change in vivo at 50 mg/kg
PARAMETER_MEASURED: change in vivo at 50 mg/kg (%)

>>> assay_result("N[C@@H](Cc1c[nH]c2ccc(O)cc12)C(=O)N[C@@H](Cc1c[nH]c2ccccc12)C(=O)O [Example 14, 5-Hydroxy-L-tryptophyl-L-tryptophan] (H-[Trp(5-OH)]-Trp-OH)")
10
>>> assay_result("N[C@@H](Cc1c[nH]c2ccc(O)cc12)C(=O)N[C@@H](CO)C(=O)O [Example 16, L-5-HYDROXYTRYPTOPHYL-L-SERINE] (H-[Trp(5-OH)]-Ser-OH)")
15
>>> assay_result("N[C@@H](Cc1c[nH]c2ccc(O)cc12)C(=O)NCC(=O)O [Example 19, 5-HYDROXY-L-TRYPTOPHYLGLYCINE] (H-[Trp(5-OH)]-Gly-OH)")
30
